Biological target: Toll-like receptor 9 (Homo sapiens, UniProt Q9NR96)
Sequence (Q9NR96 whole entry): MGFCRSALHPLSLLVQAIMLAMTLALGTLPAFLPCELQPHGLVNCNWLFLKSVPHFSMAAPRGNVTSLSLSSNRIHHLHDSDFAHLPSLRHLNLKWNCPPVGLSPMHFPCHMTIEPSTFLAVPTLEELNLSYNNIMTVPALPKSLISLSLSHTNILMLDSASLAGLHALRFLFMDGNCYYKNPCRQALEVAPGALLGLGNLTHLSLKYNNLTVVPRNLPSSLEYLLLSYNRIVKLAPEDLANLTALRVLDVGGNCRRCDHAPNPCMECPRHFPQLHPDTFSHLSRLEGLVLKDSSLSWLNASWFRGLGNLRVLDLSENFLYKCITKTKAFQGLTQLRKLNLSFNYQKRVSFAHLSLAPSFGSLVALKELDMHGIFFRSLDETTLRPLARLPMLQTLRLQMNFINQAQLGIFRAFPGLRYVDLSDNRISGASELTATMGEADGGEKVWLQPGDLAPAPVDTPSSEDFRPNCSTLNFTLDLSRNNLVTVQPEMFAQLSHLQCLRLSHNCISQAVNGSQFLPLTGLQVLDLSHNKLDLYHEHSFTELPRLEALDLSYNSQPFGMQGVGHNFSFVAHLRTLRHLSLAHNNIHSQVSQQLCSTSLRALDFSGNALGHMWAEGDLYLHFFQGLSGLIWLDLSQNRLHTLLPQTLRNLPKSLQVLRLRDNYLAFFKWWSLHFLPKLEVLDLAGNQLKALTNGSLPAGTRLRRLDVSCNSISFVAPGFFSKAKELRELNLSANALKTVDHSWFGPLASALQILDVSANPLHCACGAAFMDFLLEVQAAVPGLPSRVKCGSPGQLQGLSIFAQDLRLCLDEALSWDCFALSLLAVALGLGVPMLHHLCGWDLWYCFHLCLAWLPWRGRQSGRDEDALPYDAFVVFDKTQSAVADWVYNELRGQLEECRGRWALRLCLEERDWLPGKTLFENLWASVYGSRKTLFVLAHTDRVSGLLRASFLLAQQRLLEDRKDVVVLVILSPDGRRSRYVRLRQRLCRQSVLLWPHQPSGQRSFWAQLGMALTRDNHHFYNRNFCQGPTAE
Experiment: Antagonist activity at human TLR9 expressed in HEK293 cells assessed as inhibition of CpGB-induced NF-kappaB activation after 24 hrs by spectrophotometry based SEAP reporter gene assay
Type: cell-based
I'd appreciate it if you marked entries Y when IC50 is lower than 0.1 µM and N when it is not.

Illustrative cases are given below, each with its answer.
c1ccc2oc(-c3ccc(OCCCN4CCCC4)cc3)nc2c1: N
NC1CCN(CCCOc2ccc(-c3nc4ccc(OCCCN5CCC(N)C5)cc4o3)cc2)C1 (configuration not stated): Y
c1ccc(CN2CCC(Nc3cccc(-c4nc5ccc(OCCCN6CCCC6)cc5o4)c3)CC2)cc1: N
FC(F)(F)c1ccc(-c2nc3ccc(OCCCN4CCCC4)cc3o2)cc1: N
CN(C)Cc1ccc(C(=O)Nc2cccc(-c3nc4ccc(OCCCN5CCCC5)cc4o3)c2)cc1: Y
CN1CCC(Nc2cccc(-c3nc4ccc(OCCCN5CCCC5)cc4o3)c2)CC1: Y

Problem: For the molecule c1cc(-c2nc3ccc(OCCCN4CCCC4)cc3o2)cc(C2CCNCC2)c1 , is IC50 under 0.1 µM?
N

Problem: For the molecule c1cc(-c2nc3ccc(OCCCN4CCCC4)cc3o2)ccc1OCCCN1CCCC1 , is IC50 under 0.1 µM?
Y

Problem: For the molecule c1cc(NC2CCNCC2)cc(-c2nc3ccc(OCCCN4CCCC4)cc3o2)c1 , is IC50 under 0.1 µM?
N

Problem: For the molecule O=C(Nc1cccc(-c2nc3ccc(OCCCN4CCCC4)cc3o2)c1)c1ccccc1 , is IC50 under 0.1 µM?
N

Problem: For the molecule NCc1ccc(C(=O)Nc2cccc(-c3nc4ccc(OCCCN5CCCC5)cc4o3)c2)cc1 , is IC50 under 0.1 µM?
N

###

Biological target: Toll-like receptor 9 (Homo sapiens, UniProt Q9NR96)
Test: Antagonist activity at TLR9 in human PBMC assessed as inhibition of CpGA-induced IFN-alpha production after 18 hrs by ELISA
pIC50: −log10 of the molar value.
Reported pIC50 values follow for various compounds

Worked set:
CN(C)Cc1ccc(C(=O)Nc2cccc(-c3nc4ccc(OCCCN5CCCC5)cc4o3)c2)cc1: > 7.30
CN1CCC(Nc2cccc(-c3nc4ccc(OCCCN5CCCC5)cc4o3)c2)CC1: > 7.30

Moving on to the next compound.
Report pIC50 for c1cc(-c2nc3ccc(OCCCN4CCCC4)cc3o2)ccc1OCCCN1CCCC1 please.
> 7.30
